Measured pIC50, listed per entry.
target: human PD-1 (Jurkat-PD-1 cells) / PE-labeled human PD-L1-Ig (Homo sapiens, UniProt Q15116); construct: expressed in transfected cells; host or cells: Jurkat cell line over-expressing human PD-1; test: Jurkat-PD-1 Cell Binding High-Content Screening Assay (CBA); Jurkat hPD1-PDL1 assay; conditions: Jurkat cell line over-expressing human PD-1; PE-labeled PD-L1-Ig 20 nM final; compound incubated 2 hours at 37° C.; read-out: Jurkat HPD1-PDL1 IC50
Sequence (Q15116 25-288): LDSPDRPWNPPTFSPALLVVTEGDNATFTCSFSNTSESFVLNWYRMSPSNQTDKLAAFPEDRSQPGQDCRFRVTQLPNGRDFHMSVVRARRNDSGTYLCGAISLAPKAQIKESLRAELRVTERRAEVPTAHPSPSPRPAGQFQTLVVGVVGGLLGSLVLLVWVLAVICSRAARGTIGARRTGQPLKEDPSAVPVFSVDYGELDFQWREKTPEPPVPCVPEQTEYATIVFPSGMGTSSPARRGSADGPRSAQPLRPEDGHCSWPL
Positions of bridges follow the written chain, without caps; N, C: chain ends. Non-standard residues stand in square brackets, D forms with d. Residues, ends and D or L forms follow the SMILES beside them. Bip = N[C@@H](Cc1ccc(-c2ccccc2)cc1)C(=O)O; Ala(cPent) = N[C@@H](CC1CCCC1)C(=O)O; NMeF = CN[C@@H](Cc1ccccc1)C(=O)O; NMeA = CN[C@@H](C)C(=O)O; Nle = CCCC[C@H](N)C(=O)O; Sar = CNCC(=O)O
pIC50 is a log-scale quantity: -log10 of the concentration expressed in molar.

>>> reportedresult("CC(C)C[C@@H]1NC(=O)[C@H](CC(N)=O)NC(=O)CN(C)C(=O)[C@H](C)N(C)C(=O)[C@H](C(C)C)NC(=O)[C@H](Cc2ccc(-c3ccccc3)cc2)NC(=O)[C@H](CC2CCCC2)NC(=O)[C@H](Cc2c[nH]c3ccccc23)NC(=O)[C@H](CC(=O)O)NC(=O)[C@H](Cc2ccc(O)cc2)NC(=O)[C@H](Cc2ccccc2)NC(=O)CSC[C@@H](C(=O)N[C@@H](C)C(N)=O)NC(=O)[C@H](CO)NC(=O)[C@H](C(C)C)NC1=O [Example 1147] ({CH2CO}-FYDW[Ala(cPent)][Bip]V[NMeA][Sar]NLVSCA-NH2; thioether N-14)")
6.18

Now turn to the next compound.
In: Field request: pIC50 | item: CCCC[C@@H]1NC(=O)[C@H](C(C)C)NC(=O)[C@H](Cc2ccccc2)N(C)C(=O)[C@H](CC(=O)O)NC(=O)[C@H](CCCNC(=N)N)NC(=O)[C@H](Cc2ccc(-c3ccccc3)cc2)NC(=O)[C@H](C(C)C)NC(=O)[C@H](Cc2c[nH]c3ccccc23)NC(=O)[C@H](CC(=O)O)NC(=O)[C@H](Cc2ccc(O)cc2)NC(=O)[C@H](Cc2ccccc2)NC(=O)CSC[C@@H](C(=O)NCC(N)=O)NC(=O)[C@H](CO)NC(=O)[C@H](C(C)C)NC1=O [Example 1227] ({CH2CO}-FYDWV[Bip]RD[NMeF]V[Nle]VSCG-NH2; thioether N-14)
Out: 6.19

###

Target: human PD-1 (Jurkat-PD-1 cells) / PE-labeled human PD-L1-Ig (Homo sapiens, UniProt Q15116)
Construct: expressed in transfected cells; host or cells: Jurkat cell line over-expressing human PD-1
Assay: Jurkat-PD-1 Cell Binding High-Content Screening Assay (CBA); Jurkat hPD1-PDL1 assay
Conditions: Jurkat cell line over-expressing human PD-1; PE-labeled PD-L1-Ig 20 nM final; compound incubated 2 hours at 37° C.; read-out: Jurkat HPD1-PDL1 IC50
Source text: The ability of the compounds of formula (I) to bind to PD-1 was investigated using a Jurkat-PD-1 Cell Binding High-Content Screening Assay. Jurkat-PD-1 Cell Binding High-Content Screening Assay (CBA) Phycoerythrin (PE) was covalently linked to the Ig epitope tag of human PD-L1-Ig and fluorescently-labeled PD-L1-Ig was used for binding studies with a Jurkat cell line over-expressing human PD-1 (Jurkat-PD-1). […]
Positions of bridges follow the written chain, without caps; N, C: chain ends. Non-standard residues stand in square brackets, D forms with d. Residues, ends and D or L forms follow the SMILES beside them. Bip = N[C@@H](Cc1ccc(-c2ccccc2)cc1)C(=O)O; NMeA = CN[C@@H](C)C(=O)O; Sar = CNCC(=O)O
valueKind: pIC50
pIC50 is a log-scale quantity: -log10 of the concentration expressed in molar.

In: Field request: pIC50 | item: CC(C)C[C@@H]1NC(=O)[C@H](C)NC(=O)CN(C)C(=O)[C@H](C)N(C)C(=O)[C@H](C(C)C)NC(=O)[C@H](Cc2ccc(-c3ccccc3)cc2)NC(=O)[C@H](CC(C)C)NC(=O)[C@H](Cc2c[nH]c3ccccc23)NC(=O)[C@H](CC(=O)O)NC(=O)[C@H](Cc2ccc(O)cc2)NC(=O)[C@H](Cc2ccccc2)NC(=O)CSC[C@@H](C(=O)NCC(N)=O)NC(=O)[C@H](CO)NC(=O)[C@H](C(C)C)NC1=O [Example 1130] ({CH2CO}-FYDWL[Bip]V[NMeA][Sar]ALVSCG-NH2; thioether N-14)
Out: 6.30

###

Measured pIC50, listed per entry.
Target: human PD-1 (Jurkat-PD-1 cells) / PE-labeled human PD-L1-Ig (Homo sapiens, UniProt Q15116)
Construct: expressed in transfected cells; host or cells: Jurkat cell line over-expressing human PD-1
Assay: Jurkat-PD-1 Cell Binding High-Content Screening Assay (CBA); Jurkat hPD1-PDL1 assay
Conditions: Jurkat cell line over-expressing human PD-1; PE-labeled PD-L1-Ig 20 nM final; compound incubated 2 hours at 37° C.; read-out: Jurkat HPD1-PDL1 IC50
Source text: The ability of the compounds of formula (I) to bind to PD-1 was investigated using a Jurkat-PD-1 Cell Binding High-Content Screening Assay. Jurkat-PD-1 Cell Binding High-Content Screening Assay (CBA) Phycoerythrin (PE) was covalently linked to the Ig epitope tag of human PD-L1-Ig and fluorescently-labeled PD-L1-Ig was used for binding studies with a Jurkat cell line over-expressing human PD-1 (Jurkat-PD-1). […]
Positions of bridges follow the written chain, without caps; N, C: chain ends. Non-standard residues stand in square brackets, D forms with d. Residues, ends and D or L forms follow the SMILES beside them. Bip = N[C@@H](Cc1ccc(-c2ccccc2)cc1)C(=O)O; Cha = N[C@@H](CC1CCCCC1)C(=O)O; NMeA = CN[C@@H](C)C(=O)O; Sar = CNCC(=O)O
pIC50 is a log-scale quantity: -log10 of the concentration expressed in molar.

>>> reportedresult("CC(C)C[C@@H]1NC(=O)[C@H](Cc2c[nH]c3ccccc23)NC(=O)[C@H](CC(=O)O)NC(=O)[C@H](Cc2ccc(O)cc2)NC(=O)[C@H](Cc2ccccc2)NC(=O)CSC[C@@H](C(=O)N[C@@H](CO)C(N)=O)NC(=O)[C@H](CO)NC(=O)[C@H](C(C)C)NC(=O)[C@H](CC(C)C)NC(=O)[C@H](CC(N)=O)NC(=O)CN(C)C(=O)[C@H](C)N(C)C(=O)[C@H](C(C)C)NC(=O)[C@H](Cc2ccc(-c3ccccc3)cc2)NC1=O [Example 1173] ({CH2CO}-FYDWL[Bip]V[NMeA][Sar]NLVSCS-NH2; thioether N-14)")
6.02

Now turn to the next compound.
In: Field request: pIC50 | item: CC(C)C[C@@H]1NC(=O)[C@H](Cc2c[nH]c3ccccc23)NC(=O)[C@H](CC(=O)O)NC(=O)[C@H](Cc2ccc(O)cc2)NC(=O)[C@H](CC2CCCCC2)NC(=O)CSC[C@@H](C(=O)NCC(N)=O)NC(=O)[C@H](CO)NC(=O)[C@H](C(C)C)NC(=O)[C@H](CC(C)C)NC(=O)[C@H](CC(N)=O)NC(=O)CN(C)C(=O)[C@H](C)N(C)C(=O)[C@H](C(C)C)NC(=O)[C@H](Cc2ccc(-c3ccccc3)cc2)NC1=O [Example 1117] ({CH2CO}-[Cha]YDWL[Bip]V[NMeA][Sar]NLVSCG-NH2; thioether N-14)
Out: 6.39

###

Molecular target: human PD-1 (Jurkat-PD-1 cells) / PE-labeled human PD-L1-Ig (Homo sapiens)
Construct: expressed in transfected cells; host or cells: Jurkat cell line over-expressing human PD-1
Assay: Jurkat-PD-1 Cell Binding High-Content Screening Assay (CBA); Jurkat hPD1-PDL1 assay
Conditions: Jurkat cell line over-expressing human PD-1; PE-labeled PD-L1-Ig 20 nM final; compound incubated 2 hours at 37° C.; read-out: Jurkat HPD1-PDL1 IC50
Text: The ability of the compounds of formula (I) to bind to PD-1 was investigated using a Jurkat-PD-1 Cell Binding High-Content Screening Assay. Jurkat-PD-1 Cell Binding High-Content Screening Assay (CBA) Phycoerythrin (PE) was covalently linked to the Ig epitope tag of human PD-L1-Ig and fluorescently-labeled PD-L1-Ig was used for binding studies with a Jurkat cell line over-expressing human PD-1 (Jurkat-PD-1). […]
Positions of bridges follow the written chain, without caps; N, C: chain ends. Non-standard residues stand in square brackets, D forms with d. Residues, ends and D or L forms follow the SMILES beside them. Bip = N[C@@H](Cc1ccc(-c2ccccc2)cc1)C(=O)O; Phe(3-Me) = Cc1cccc(C[C@H](N)C(=O)O)c1; NMeA = CN[C@@H](C)C(=O)O
valueKind: IC50 (nM)
API: value field is a number in nM; no unit string.

In: Field request: IC50 | item: Cc1cccc(C[C@@H]2NC(=O)[C@H](Cc3ccccc3)NC(=O)CSC[C@@H](C(=O)N[C@@H](C)C(N)=O)NC(=O)[C@H](CO)NC(=O)[C@H](C(C)C)NC(=O)[C@H](CC(C)C)NC(=O)[C@H](CC(N)=O)NC(=O)[C@H]3CCCN3C(=O)[C@H](C)N(C)C(=O)[C@H](C(C)C)NC(=O)[C@H](Cc3ccc(-c4ccccc4)cc3)NC(=O)[C@H](CC(C)C)NC(=O)[C@H](Cc3c[nH]c4ccccc34)NC(=O)[C@H](CC(=O)O)NC2=O)c1 [Example 1033] ({CH2CO}-F[Phe(3-Me)]DWL[Bip]V[NMeA][dP]NLVSCA-NH2; thioether N-14)
Out: 60
